- Test system: A498
- EXPERIMENT: NCI tumour cell line growth inhibition, 48 h
The source made the active and inactive calls. Cut-off read from the data, not from the text of the source: active = GI50 up to about 1.1 µM and inactive = higher.
MEASURE NAME: GI50

Recorded results for 3 compounds are shown here.
IN: GI50 of NC(CCc1ccccc1)(C(=O)O)c1ccccc1 (stereo not given) on A498?
OUT: > 100 µM (inactive)

IN: GI50 of COc1ccc(C23C(=O)c4ccccc4N2O[C@H]2C(=O)N(c4ccccc4)C(=O)[C@H]23)cc1 (stereo not given in full) on A498?
OUT: > 100 µM (inactive)

IN: GI50 of CSc1ccc(/C=C2\N=C(c3ccccc3)N(/N=C/c3cc4cc(C)ccc4nc3Cl)C2=O)cc1 on A498?
OUT: 17.5 µM (inactive)

New cases:
IN: GI50 of COC1=CC(=O)c2c(c(-c3csc(C)n3)cn2C)C1=O on A498?
OUT: 22.5 µM (inactive)

IN: GI50 of CC1(C)Oc2ccccc2[N+]([O-])=C1c1ccccc1 on A498?
OUT: > 100 µM (inactive)

IN: GI50 of Cc1sc2nc(N(C)C)oc(=O)c2c1C on A498?
OUT: 81.3 µM (inactive)

IN: GI50 of COc1cc(C2SC(=N)Nc3c2c(C)nn3C(=O)c2ccccc2O)cc(OC)c1OC (stereo not given) on A498?
OUT: 5 µM (inactive)

IN: GI50 of COc1ccc(-c2[nH]c3c4c(nc5c(c24)C(=O)CC(C)(C)C5)CC(C)(C)C3)cc1 on A498?
OUT: 28.6 µM (inactive)

IN: GI50 of Oc1ccc2ccccc2c1/C=N/Cc1c(O)ccc2ccccc12 on A498?
OUT: 26.1 µM (inactive)

IN: GI50 of COC(=O)C1=C(C(=O)OC)C(N(C)C)C(C(=O)OC)=C(C(=O)OC)S1 on A498?
OUT: > 100 µM (inactive)

---

- Tested on: SN12C
- EXPERIMENT: NCI tumour cell line growth inhibition, 48 h
Active and inactive are the calls of the source. No stated cut-off is given here; in the data, active = GI50 up to about 1.1 µM and inactive = higher.
Listed here: items and their measured GI50.

Recorded results for 5 molecules are shown here.
IN: GI50 of N#C/C(=N/Nc1[nH]cnc1C(N)=O)C(=O)Nc1ccccc1 on SN12C?
OUT: 4.71 µM (inactive)

IN: GI50 of O=c1c2ccccc2n2c(-c3ccc(O)cc3)nnc2n1-c1ccccc1 on SN12C?
OUT: 17.1 µM (inactive)

IN: GI50 of CC(CN1NC12CCCC2)N1NC12CCCC2 (stereo unspecified) on SN12C?
OUT: > 100 µM (inactive)

IN: GI50 of CCOC(=O)C1=C(OC(OCC)C([Se]c2ccccc2)C(C)C)CCC1 (stereo unspecified) on SN12C?
OUT: 10.4 µM (inactive)

IN: GI50 of NS(=O)(=O)c1cc2c(cc1Cl)NC(Cc1ccccc1)NS2(=O)=O (stereo unspecified) [BENZYLHYDROCHLOROTHIAZIDE] on SN12C?
OUT: > 100 µM (inactive)

New cases:
IN: GI50 of Clc1ccc(NCc2nnc(COc3ccc(OCc4nnc(CNc5ccc(Cl)cc5)o4)c(Cl)c3)o2)cc1 on SN12C?
OUT: 43.5 µM (inactive)

IN: GI50 of COC(=O)c1sc(=NC(=S)N2CCCCC2)sc1C(=O)OC on SN12C?
OUT: > 100 µM (inactive)

IN: GI50 of CC(C)C(=O)/C=C/c1ccccc1 on SN12C?
OUT: 79.3 µM (inactive)

IN: GI50 of Nc1nc(Cl)cc(NCCCCCCCCCCCCNc2cc(Cl)nc(N)n2)n1 on SN12C?
OUT: 32.7 µM (inactive)

IN: GI50 of COc1cc(/C=C2\CCC(C)c3c2nc(N)c(C#N)c3-c2cc(OC)c(OC)c(OC)c2)cc(OC)c1OC (stereo unspecified) on SN12C?
OUT: 44.4 µM (inactive)

IN: GI50 of Cc1nn(-c2ccccc2)c(C)c1/C=N/N=C1\SCC(=O)N1c1ccccc1 on SN12C?
OUT: 44.7 µM (inactive)
